Target: SARS-CoV preparation (Frankfurt 1 strain)
Assay: phage ELISA on coated SARS-CoV preparation, plate 2 (no phage antibody 0.211)
Could you please report measured OD492 nm for the items listed next?
Express your answer in OD492 nm, writing the number without its unit.

I would be grateful if you could share the reported OD492 nm for SC03-024 (scFv) scFv: AMAQVQLVESGSELKIPGASVKVSCKATGYTFTRYSLNWVRQAPGQGLEWVGWINTQTGNSNYGQAFSGRFVFSLDTSVSTAYLQISSLQAEDTATYYCARKSAGSNAFDIWGQGTMVTVSSGTGGSGGTGSGTGGSTQSVVTQPPSVSAAPGQKATISCSGSSSNIGNNYVSWYQQLPGTAPKLLIYDNNKRPSGIPNRFSGSKSGTSATLGITGLQTGDEADYYCGTWDSSLSAYVFGTGTKVTVLGAA .
0.235

What value of OD492 nm has been recorded for this entry: SC03-025 (scFv) scFv: AMAEVQLVESGGGLVQPGGSLRLSCAASGFTFSSYAMHWVRQAPGKGLEYVSGISSNGGSTYYANSVKGRFTISRDNSKNTLYLQMGSLRAEDMAVYYCARTTNRAFDIWGQGTMVTVSSGTGGSGGTGSGTGGSTDIQLTQSPDSLAVSLGERATINCKSSQSVLYSSNNKNYLAWYQQKPGQPPKLLIYWASIRESGVPDRFSGSGSGTDFTLTISSLQAEDVAVYYCQQYYNIPYAFGQGTKLEIKRAA
1.64
